experiment: Stability of ligands in 0.1 M PBS (UV/Vis concentration); assay type: physicochemical; conditions: room temperature (rt), storage 3,5 h (EC), 22 h (CAT), 15 h (PC B1, PC B2, PC C1)
Recorded conc. for the following compounds

compound	conc.
Oc1cc(O)c2c(c1)O[C@H](c1ccc(O)c(O)c1)[C@H](O)[C@H]2c1c(O)cc(O)c2c1O[C@H](c1ccc(O)c(O)c1)[C@H](O)C2	4,56 ± 0,21 mM
Oc1cc(O)c2c(c1)O[C@H](c1ccc(O)c(O)c1)[C@H](O)[C@H]2c1c(O)cc(O)c2c1O[C@H](c1ccc(O)c(O)c1)[C@@H](O)C2	4,10 ± 0,29 mM
Oc1cc(O)c2c(c1)O[C@H](c1ccc(O)c(O)c1)[C@H](O)C2 [EC, (−)-Epicatechin]	4,23 ± 0,24 mM
Oc1cc(O)c2c(c1)O[C@H](c1ccc(O)c(O)c1)[C@H](O)[C@H]2c1c(O)cc(O)c2c1O[C@H](c1ccc(O)c(O)c1)[C@H](O)[C@H]2c1c(O)cc(O)c2c1O[C@H](c1ccc(O)c(O)c1)[C@H](O)C2	4,29 ± 0,30 mM
Oc1cc(O)c2c(c1)O[C@H](c1ccc(O)c(O)c1)[C@@H](O)C2 [CAT, (+)-Catechin]	4,02 ± 0,21 mM
